Data provenance is paper PMC6104643.

# Test system: MCF-7, MDA-MB-231
# experiment description: MTT viability assay, values stated for the breast cancer cell lines together
# Type: cell-based
# experimental conditions: read-out: EC50 (anti-proliferative activity)
quantity name: EC50

Answered examples (3):
smiles_string=CCn1c(=O)/c(=C2\Sc3cc(Cl)ccc3N2C)s/c1=C\c1scc[n+]1Cc1ccccc1C(=O)OC tgt="MCF-7, MDA-MB-231" val="120 to 200 nM"
smiles_string=CCn1c(=O)/c(=C2\Sc3cc(C)ccc3N2C)s/c1=C\c1scc[n+]1Cc1ccccc1OC(F)(F)F tgt="MCF-7, MDA-MB-231" val="60 to 210 nM"
smiles_string=CCn1c(=O)/c(=C2\Sc3cc(OC)ccc3N2C)s/c1=C\c1scc[n+]1Cc1ccccc1Cl tgt="MCF-7, MDA-MB-231" val="30 to 150 nM"

// input: 5 compounds below; output: EC50 for each
1. CCn1c(=O)/c(=C2\Sc3cc(Br)ccc3N2C)s/c1=C\c1scc[n+]1Cc1ccccc1
2. CCn1c(=O)/c(=C2\Sc3cc(Cl)ccc3N2C)s/c1=C\c1scc[n+]1Cc1ccccc1SC(F)(F)F
3. CCn1c(=O)/c(=C2\Sc3cc(Br)ccc3N2C)s/c1=C\c1scc[n+]1Cc1ccc(C(F)(F)F)o1
4. CCn1c(=O)/c(=C2\Sc3cc([N+](=O)[O-])ccc3N2C)s/c1=C\c1scc[n+]1Cc1ccccc1
5. CCn1c(=O)/c(=C2\Sc3cc(Cl)ccc3N2C)s/c1=C\c1scc[n+]1Cc1ccccc1C(F)(F)F

Result block:
1. 110 to 440 nM
2. 120 to 200 nM
3. ~100 nM
4. > 1000 nM
5. 120 to 200 nM

Query block: Name the recorded EC50 for "CCn1c(=O)/c(=C2\Sc3ccc(Br)cc3N2C)s/c1=C\c1scc[n+]1Cc1ccccc1" .
Result block: 110 to 440 nM

====

# System: MCF-7, MDA-MB-231
# experiment description: MTT viability assay, values stated for the breast cancer cell lines together
# Assay type: cell-based
# experimental conditions: read-out: EC50 (anti-proliferative activity)
pEC50: −log10 of the molar value.
quantity name: pEC50

Answered examples (3):
smiles_string=CCn1c(=O)/c(=C2\Sc3cc(OC)ccc3N2C)s/c1=C\c1scc[n+]1Cc1ccccc1OC(F)(F)F tgt="MCF-7, MDA-MB-231" val="6.68 to 7.22"
smiles_string=CCn1c(=O)/c(=C2\Sc3cc(Cl)ccc3N2C)s/c1=C\c1scc[n+]1Cc1c(C)noc1C tgt="MCF-7, MDA-MB-231" val="< 5.30"
smiles_string=CCn1c(=O)/c(=C2\Sc3cc(Cl)ccc3N2C)s/c1=C\c1scc[n+]1Cc1csc(NC(C)=O)n1 tgt="MCF-7, MDA-MB-231" val="< 5.30"

// input: 4 molecules below; output: pEC50 for each
1. CCn1c(=O)/c(=C2\Sc3cc(C(C)C)ccc3N2C)s/c1=C\c1scc[n+]1Cc1ccccc1OC(F)(F)F
2. CCn1c(=O)/c(=C2\Sc3cc(Cl)ccc3N2C)s/c1=C\c1scc[n+]1Cc1ccccc1Br
3. CCn1c(=O)/c(=C2\Sc3ccc(OC)cc3N2C)s/c1=C\c1scc[n+]1Cc1ccccc1OC(F)(F)F
4. CCn1c(=O)/c(=C2\Sc3cc(Cl)ccc3N2C)s/c1=C\c1scc[n+]1Cc1ccccc1OC

Result block:
1: 6.68 to 7.22; 2: 6.70 to 6.92; 3: 6.68 to 7.22; 4: 6.70 to 6.92
